Value source: PubChem BioAssay AID1918955

Test system: NCI/ADR-RES complex spheroid viability
Test: Anticancer human tumor NCI/ADR-RES cell line growth inhibition
Settings: second compound 0.316 µM; first compound 0.000949 µM; stronger effect = lower value
PROPERTY_MEASURED: viability, T/C (%)
Unit % implied. Number only.

The following compounds have reported results that may help.
> print(dat)
                                   compound  unit.string  observed.value
1  CCc1c2c(nc3ccc(O)cc13)-c1cc3c(c(=O)n1C2)COC(=O)[C@]3(O)CC + NC1CC1c1ccc(-c2cccc(O)c2)cc1            %            3.44
2  CCc1c2c(nc3ccc(O)cc13)-c1cc3c(c(=O)n1C2)COC(=O)[C@]3(O)CC + NC1CCC(NC2CC2c2ccccc2)CC1            %            2.94
3  Nc1ncn(C2CC(O)C(CO)S2)c(=O)n1 (stereo unspecified) + NC1CC1c1ccc(-c2cccc(O)c2)cc1            %            91.2
4  Nc1ncn(C2CC(O)C(CO)S2)c(=O)n1 (stereo unspecified) + NC1CCC(NC2CC2c2ccccc2)CC1            %             106
5  Nc1ccn(C2OC(CO)C(O)C2(F)F)c(=O)n1 (stereo unspecified) + NC1CC1c1ccc(-c2cccc(O)c2)cc1            %            2.24

For the compound Nc1ccn(C2OC(CO)C(O)C2(F)F)c(=O)n1 (stereo unspecified) + NC1CCC(NC2CC2c2ccccc2)CC1 , give its measured viability, T/C value.
4.09

====

Test system: NCI/ADR-RES complex spheroid viability
Assay: Anticancer human tumor NCI/ADR-RES cell line growth inhibition;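 further: spheroids exposed to compounds for 7 days; 100% = DMSO vehicle treated spheroids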
Details: second compound 1 µM; first compound 0.00316 µM; stronger effect = lower value
Source text: Multicellular complex tumor spheroid response to LSD1 Inhibitor Iadademstat in combination with a variety of drugs and investigational agents in selected tumor cell lines The current study was undertaken to assess response to LSD1 inhibitors in combination with standard-of-care drugs and investigational agents in solid tumor complex spheroid models as well as in the K-562 leukemia. […] Compounds. […] If the clinical Cmax for an agent had not been determined, the highest concentration tested was 10 microM. […]
PROPERTY_MEASURED: viability, T/C (%)
Unit % implied. Number only.

The following compounds have reported results that may help.
> print(dat)
                                   compound  property.measured  observed.value
1  CC[C@@]1(O)C(=O)OCc2c1cc1n(c2=O)Cc2cc3c(CN(C)C)c(O)ccc3nc2-1 + NC1CCC(NC2CC2c2ccccc2)CC1     viability, T/C            92.9
2  Cn1ncnc1C1c2n[nH]c(=O)c3cc(F)cc(c23)NC1c1ccc(F)cc1 (configuration not stated) + NC1CCC(NC2CC2c2ccccc2)CC1     viability, T/C             105
3  CC1COCCN1c1cc(-c2ccnn2C)c2ccnc(-c3ccn[nH]3)c2n1 (configuration not stated) + NC1CCC(NC2CC2c2ccccc2)CC1     viability, T/C             102
4  COc1cc(Nc2ncc3c(n2)-c2ccc(Cl)cc2C(c2c(F)cccc2OC)=NC3)ccc1C(=O)O + NC1CC1c1ccc(-c2cccc(O)c2)cc1     viability, T/C            89.7

For the compound O=C(C=Cn1cnc(-c2cc(C(F)(F)F)cc(C(F)(F)F)c2)n1)NNc1cnccn1 + NC1CC1c1ccc(-c2cccc(O)c2)cc1 , give its measured viability, T/C value.
59.5

For the compound CC[C@@]1(O)C(=O)OCc2c1cc1n(c2=O)Cc2cc3c(CN(C)C)c(O)ccc3nc2-1 + NC1CC1c1ccc(-c2cccc(O)c2)cc1 , give its measured viability, T/C value.
83.5

For the compound CC(C)CC(NC(=O)C(Cc1ccccc1)NC(=O)c1cnccn1)B(O)O (configuration not stated) + NC1CC1c1ccc(-c2cccc(O)c2)cc1 , give its measured viability, T/C value.
93.5

====

Test system: NCI/ADR-RES complex spheroid viability
Assay: Anticancer human tumor NCI/ADR-RES cell line growth inhibition;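 further: spheroids exposed to compounds for 7 days; 100% = DMSO vehicle treated spheroids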
Conditions: second compound 0.316 µM; first compound 0.3 µM; stronger effect = lower value
Here the recorded viability, T/C is given for each entry.
Unit % implied. Number only.

MOLECULE	SYSTEM_NAME	UNIT_STRING	OBSERVED_VALUE
NS(=O)(=O)OCC1CC(n2ccc3c(NC4CCc5ccccc54)ncnc32)CC1O (centres undefined) + NC1CC1c1ccc(-c2cccc(O)c2)cc1	NCI/ADR-RES complex spheroid viability	%	77.5

For the molecule CCc1c2c(nc3ccc(O)cc13)-c1cc3c(c(=O)n1C2)COC(=O)[C@]3(O)CC + NC1CC1c1ccc(-c2cccc(O)c2)cc1 , give its measured viability, T/C value.
0.38

For the molecule Nc1ccccc1NC(=O)c1ccc(CNC(=O)OCc2cccnc2)cc1 + NC1CCC(NC2CC2c2ccccc2)CC1 , give its measured viability, T/C value.
93.8

====

Here the recorded viability, T/C is given for each entry.
System: NCI/ADR-RES complex spheroid viability
Test: Anticancer human tumor NCI/ADR-RES cell line growth inhibition;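 further: spheroids exposed to compounds for 7 days; 100% = DMSO vehicle treated spheroids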
Conditions: second compound 1 µM; first compound 0.00316 µM; stronger effect = lower value
From the text: Multicellular complex tumor spheroid response to LSD1 Inhibitor Iadademstat in combination with a variety of drugs and investigational agents in selected tumor cell lines The current study was undertaken to assess response to LSD1 inhibitors in combination with standard-of-care drugs and investigational agents in solid tumor complex spheroid models as well as in the K-562 leukemia. […] Compounds. […] If the clinical Cmax for an agent had not been determined, the highest concentration tested was 10 microM. […]
Unit % implied. Number only.

The following molecules have reported results that may help.
> print(dat)
                                   molecule                             system.name  property.measured  unit.string  observed.value
1  O=C(C=Cn1cnc(-c2cc(C(F)(F)F)cc(C(F)(F)F)c2)n1)NNc1cnccn1 + NC1CCC(NC2CC2c2ccccc2)CC1  NCI/ADR-RES complex spheroid viability     viability, T/C            %            72.3
2  COc1cc(Nc2ncc3c(n2)-c2ccc(Cl)cc2C(c2c(F)cccc2OC)=NC3)ccc1C(=O)O + NC1CCC(NC2CC2c2ccccc2)CC1  NCI/ADR-RES complex spheroid viability     viability, T/C            %            90.4
3  CC(C)CC(NC(=O)CNC(=O)c1cc(Cl)ccc1Cl)B1OC(=O)CC(CC(=O)O)(C(=O)O)O1 (centres undefined) + NC1CCC(NC2CC2c2ccccc2)CC1  NCI/ADR-RES complex spheroid viability     viability, T/C            %             102
4  Cn1ncnc1C1c2n[nH]c(=O)c3cc(F)cc(c23)NC1c1ccc(F)cc1 (centres undefined) + NC1CC1c1ccc(-c2cccc(O)c2)cc1  NCI/ADR-RES complex spheroid viability     viability, T/C            %             109
5  Nc1ncn(C2CC(O)C(CO)O2)c(=O)n1 (centres undefined) + NC1CC1c1ccc(-c2cccc(O)c2)cc1  NCI/ADR-RES complex spheroid viability     viability, T/C            %            88.5

For the molecule CC(C)CC(NC(=O)C(Cc1ccccc1)NC(=O)c1cnccn1)B(O)O (centres undefined) + NC1CCC(NC2CC2c2ccccc2)CC1 , give its measured viability, T/C value.
98.7

For the molecule CC1COCCN1c1cc(-c2ccnn2C)c2ccnc(-c3ccn[nH]3)c2n1 (centres undefined) + NC1CC1c1ccc(-c2cccc(O)c2)cc1 , give its measured viability, T/C value.
95.2

For the molecule Nc1ncn(C2CC(O)C(CO)O2)c(=O)n1 (centres undefined) + NC1CCC(NC2CC2c2ccccc2)CC1 , give its measured viability, T/C value.
105

For the molecule CC(C)CC(NC(=O)CNC(=O)c1cc(Cl)ccc1Cl)B1OC(=O)CC(CC(=O)O)(C(=O)O)O1 (centres undefined) + NC1CC1c1ccc(-c2cccc(O)c2)cc1 , give its measured viability, T/C value.
96.2

====

Test system: NCI/ADR-RES complex spheroid viability
Experiment: Anticancer human tumor NCI/ADR-RES cell line growth inhibition;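 further: spheroids exposed to compounds for 7 days; 100% = DMSO vehicle treated spheroids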
Conditions: second compound 0.1 µM; first compound 0.000316 µM; stronger effect = lower value
Here the recorded viability, T/C is given for each entry.
Unit % implied. Number only.

> print(dat)
                                   compound  unit.string  observed.value
1  Cn1ncnc1C1c2n[nH]c(=O)c3cc(F)cc(c23)NC1c1ccc(F)cc1 (centres undefined) + NC1CCC(NC2CC2c2ccccc2)CC1            %             110
2  CC[C@@]1(O)C(=O)OCc2c1cc1n(c2=O)Cc2cc3c(CN(C)C)c(O)ccc3nc2-1 + NC1CC1c1ccc(-c2cccc(O)c2)cc1            %             110
3  CC[C@@]1(O)C(=O)OCc2c1cc1n(c2=O)Cc2cc3c(CN(C)C)c(O)ccc3nc2-1 + NC1CCC(NC2CC2c2ccccc2)CC1            %             104

Now turn to the next compound.
For the compound CC(C)CC(NC(=O)CNC(=O)c1cc(Cl)ccc1Cl)B1OC(=O)CC(CC(=O)O)(C(=O)O)O1 (centres undefined) + NC1CCC(NC2CC2c2ccccc2)CC1 , give its measured viability, T/C value.
104
